Data credit: PubChem BioAssay (NCATS)

Record form. Attribute: activity change, negative = inhibition. Fill in for each entry.
# procedureDetails: qHTS Assay for Lipid Storage Modulators (AID 1519); note: % is set by controls: 0 for no effect and ±100 for the full control effect
# conditionParameters: Drosophila S3 cells, BODIPY lipid droplet/cell ratio, laser cytometry; at 25.7 µM (top of the series); cells loaded with oleic acid
Results filed as inconclusive are left out.
# number only, unit % dropped from output

Output measured activity change, negative = inhibition for this item: `CCCCc1ccc(C(=O)O)nc1` -2.75

Report activity change, negative = inhibition, nothing else, for this compound: `Cc1nccc2c1[nH]c1ccccc12` 0.405

Read the entry `CC(=O)OCC1=C(C(=O)O)N2C(=O)[C@@H](N)[C@@H]2SC1` and write its reported activity change, negative = inhibition. 1.55

Hello, please tell me recorded activity change, negative = inhibition for this one: `O=c1cccc2n1CC1CNC[C@H]2C1` -2.83
